- SYSTEM TESTED: human GPR120 (Homo sapiens)
- Construct: expressed in transfected cells; host or cells: CHO-K1 coexpressing Gα16 and mitochondrial apoaequorin
- Sequence (Q5NUL3 whole entry): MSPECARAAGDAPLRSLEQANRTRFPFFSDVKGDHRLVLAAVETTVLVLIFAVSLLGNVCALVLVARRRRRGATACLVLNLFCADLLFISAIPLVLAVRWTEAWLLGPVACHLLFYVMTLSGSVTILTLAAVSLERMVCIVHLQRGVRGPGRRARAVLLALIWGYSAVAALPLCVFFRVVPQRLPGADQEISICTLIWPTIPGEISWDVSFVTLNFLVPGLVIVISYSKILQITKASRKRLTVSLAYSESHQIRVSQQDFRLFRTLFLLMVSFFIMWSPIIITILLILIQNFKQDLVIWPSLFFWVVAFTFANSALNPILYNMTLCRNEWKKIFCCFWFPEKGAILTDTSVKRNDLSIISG
- ASSAY REMARKS: Human GPR120 Calcium-Release Assay (aequorin luminescence, CHO-K1 cells)
- Format: cell-based
- COND: pEC50=−log(EC50) from curve fit; short variant of human GPR120 in CHO-K1 with Gα16 and apoaequorin; read-out: Ca2+ pEC50 (converted)
PARAMETER MEASURED: EC50 (nM)

For orientation, consider the following solved cases.
{"SMILES DATA": "O=S1(=O)c2ccccc2CN1c1ccnc(Oc2ccccc2)n1", "EC50 / nM": 1260}
{"SMILES DATA": "Cc1cc(N2Cc3ccccc3S2(=O)=O)nc(Oc2ccc(Cl)cc2)n1", "EC50 / nM": 398}
{"SMILES DATA": "O=S1(=O)c2ccccc2CN1c1ccnc(Oc2ccc(F)cc2)n1", "EC50 / nM": 316}
{"SMILES DATA": "O=S1(=O)c2ccccc2CN1c1ccnc(Oc2ccccc2Cl)n1", "EC50 / nM": 3980}
{"SMILES DATA": "O=S1(=O)c2ccccc2CN1c1cc(C2CC2)nc(Oc2cccnc2)n1", "EC50 / nM": 794}

(I) COc1cc(Oc2cccnc2)nc(N2Cc3ccccc3S2(=O)=O)n1
(II) O=S1(=O)c2ccccc2CN1c1ccnc(OC2CCCCC2)n1
Prompt: Hello, I am sorting some records. Could you say if I or II has the smaller EC50 value? # reply format: chosen label
Completion: I
(I: 2510 nM, II: 12600 nM)
